Attribution: paper PMC10397247

# experimentalSystem: T1, 4H510-AA
# T1 chain: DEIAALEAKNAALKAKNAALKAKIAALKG
# testName: two-hybrid library CCmax;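 further: natural log of median RNA to DNA barcode read ratio; higher means stronger binding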
# testContext: mean of both orientations
The entries below come with measured interaction score values attached.
API note: the answer field is a bare number with no unit suffix.

binder	interaction score
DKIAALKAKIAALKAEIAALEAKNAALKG [4H2888-AA]	-1.56

// returns reported interaction score for input DEIAALEAKIAALEAENAALEAKIAALKG [4H278-AA]
1.09

Consider next the binder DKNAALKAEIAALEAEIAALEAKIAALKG [4H3590-AA] in the same way.
-0.0505
